biological target: MC3-R (Homo sapiens, UniProt P41968); assay: Competitive inhibition binding assay, 125I-NDP-α-MSH, MC3-R; set-up: expressed in transfected cells; conditions: 1 μM compound; inhibition of 125I-NDP-α-MSH binding; mean of triplicates; results less than 0% reported as 0%
Sequence (P41968 whole entry): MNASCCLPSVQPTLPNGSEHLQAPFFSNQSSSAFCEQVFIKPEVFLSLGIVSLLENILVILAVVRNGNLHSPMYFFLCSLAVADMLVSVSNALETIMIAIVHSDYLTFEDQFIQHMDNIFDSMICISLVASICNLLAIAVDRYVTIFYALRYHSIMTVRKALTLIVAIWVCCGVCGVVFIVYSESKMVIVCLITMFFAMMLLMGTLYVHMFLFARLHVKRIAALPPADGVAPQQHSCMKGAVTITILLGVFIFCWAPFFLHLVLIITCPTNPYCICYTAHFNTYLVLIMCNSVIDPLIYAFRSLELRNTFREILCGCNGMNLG
compounds and their reported Inhibition at 1 μM MC3-R

[
  {
    "Compound": "N[C@H](Cc1ccc(Cl)cc1Cl)C(=O)N1CCN(CCc2ccc3ccccc3c2)C(=O)[C@@H]1CCCCNC=O",
    "Inhibition at 1 μM MC3-R [%]": 0
  },
  {
    "Compound": "N[C@H](Cc1ccc(Cl)cc1Cl)C(=O)N1CCN(CCc2ccc3ccccc3c2)C(=O)[C@@H]1CCCn1cncn1",
    "Inhibition at 1 μM MC3-R [%]": 0
  },
  {
    "Compound": "N[C@H](Cc1ccc(Cl)cc1Cl)C(=O)N1CCN(CCc2ccc3ccccc3c2)C(=O)[C@@H]1CCNC1=NCCN1",
    "Inhibition at 1 μM MC3-R [%]": 14
  },
  {
    "Compound": "NCCCC[C@H]1C(=O)N2C(CC[C@@H]2COc2ccc3ccccc3c2)N1C(=O)[C@@H](Cc1ccccc1Cl)NC(=O)[C@@H]1C[C@@H](OCc2ccccc2)CN1 (some centres unmarked)",
    "Inhibition at 1 μM MC3-R [%]": 0
  },
  {
    "Compound": "N[C@H](Cc1ccc(Cl)cc1Cl)C(=O)N1CCN(CCc2ccc3ccccc3c2)C(=O)[C@@H]1CCCCNC(=O)c1ccc(O)cc1",
    "Inhibition at 1 μM MC3-R [%]": 6
  },
  {
    "Compound": "NCCC[C@H]1C(=O)N(CCc2ccc3ccccc3c2)CCN1C(=O)[C@H](N)Cc1ccc(Cl)cc1Cl",
    "Inhibition at 1 μM MC3-R [%]": 0
  },
  {
    "Compound": "C[C@@H](OCc1ccccc1)[C@H](N)C(=O)N[C@H](Cc1ccc(Cl)cc1Cl)C(=O)N1CCN(CCc2ccc3ccccc3c2)C(=O)[C@@H]1CCCCN",
    "Inhibition at 1 μM MC3-R [%]": 34
  },
  {
    "Compound": "NCCCNC(=O)[C@@H]1C[C@@H](OCc2ccccc2)CN1C(=O)[C@@H](Cc1ccccc1)NC(=O)C1(N)CCCCC1",
    "Inhibition at 1 μM MC3-R [%]": 41
  },
  {
    "Compound": "NCCCNC(=O)[C@@H]1C[C@@H](OCc2ccccc2)CN1C(=O)[C@@H](Cc1ccccc1)NC(=O)[C@@H]1Cc2ccccc2N1",
    "Inhibition at 1 μM MC3-R [%]": 0
  },
  {
    "Compound": "NCCCC[C@H]1C(=O)N(CCc2ccc3ccccc3c2)CCN1C(=O)[C@H](N)Cc1ccc(Cl)cc1Cl",
    "Inhibition at 1 μM MC3-R [%]": 3
  },
  {
    "Compound": "CCCCCCC(=O)NC(COCc1ccccc1)C(=O)NC(Cc1ccc2ccccc2c1)C(=O)N1CC2CC(Oc3ccc4ccccc4c3)CN2C(=O)C1CCCCN (centres unmarked)",
    "Inhibition at 1 μM MC3-R [%]": 0
  }
]

* * *

Reported Inhibition at 1 μM MC1-R is given for each of the following compounds.
molecular target: MC1-R (B-16 mouse melanoma cells) (Mus musculus, UniProt Q01727); construct: B-16 mouse melanoma cells (containing MC1-R); endogenous in cells; host or cells: B-16 mouse melanoma cells; experiment: Competitive inhibition binding assay, 125I-NDP-α-MSH, MC1-R; details: 1 μM compound; inhibition of 125I-NDP-α-MSH binding; mean of triplicates; results less than 0% reported as 0%
Sequence (Q01727 whole entry): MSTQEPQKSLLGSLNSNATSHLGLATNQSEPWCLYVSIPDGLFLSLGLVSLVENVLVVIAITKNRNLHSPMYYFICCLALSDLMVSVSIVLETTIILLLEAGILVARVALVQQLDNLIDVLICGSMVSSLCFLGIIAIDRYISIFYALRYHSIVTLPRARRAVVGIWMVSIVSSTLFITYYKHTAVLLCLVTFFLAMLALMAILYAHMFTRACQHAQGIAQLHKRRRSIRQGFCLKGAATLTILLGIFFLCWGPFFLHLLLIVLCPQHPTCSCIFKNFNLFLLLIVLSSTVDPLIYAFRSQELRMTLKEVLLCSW

[
  {
    "Compound": "CCCCCCC(=O)NC(COCc1ccccc1)C(=O)NC(Cc1ccc2ccccc2c1)C(=O)N1CC2CC(Oc3ccc4ccccc4c3)CN2C(=O)C1CCCCN (centres unmarked)",
    "Inhibition at 1 μM MC1-R, %": 33
  },
  {
    "Compound": "N=C(N)NCCC[C@H]1C(=O)N2C(CC[C@@H]2COc2ccc3ccccc3c2)N1C(=O)[C@@H](Cc1ccc(Cl)cc1Cl)NC(=O)[C@@H]1C[C@@H](OCc2ccccc2)CN1 (some centres unmarked)",
    "Inhibition at 1 μM MC1-R, %": 53
  },
  {
    "Compound": "NCCCC[C@H]1C(=O)N(CCc2ccc3ccccc3c2)CCN1C(=O)[C@@H](Cc1ccc(Cl)cc1Cl)NCCOCc1ccccc1",
    "Inhibition at 1 μM MC1-R, %": 27
  },
  {
    "Compound": "NCCCC[C@H]1C(=O)N2C(CC[C@@H]2COc2ccc3ccccc3c2)N1C(=O)[C@@H](Cc1ccccc1Cl)NC(=O)[C@@H]1NCCc2ccccc21 (some centres unmarked)",
    "Inhibition at 1 μM MC1-R, %": 48
  },
  {
    "Compound": "N[C@H](Cc1ccc(Cl)cc1Cl)C(=O)N1CCN(CCc2ccc3ccccc3c2)C(=O)[C@@H]1CCCn1cncn1",
    "Inhibition at 1 μM MC1-R, %": 7
  }
]

* * *

target: MC4-R (Homo sapiens, UniProt P32245); assay: Competitive inhibition binding assay, 125I-NDP-α-MSH, MC4-R; design: expressed in transfected cells; conditions: 1 μM compound; inhibition of 125I-NDP-α-MSH binding; mean of triplicates; results less than 0% reported as 0%
Sequence (P32245 whole entry): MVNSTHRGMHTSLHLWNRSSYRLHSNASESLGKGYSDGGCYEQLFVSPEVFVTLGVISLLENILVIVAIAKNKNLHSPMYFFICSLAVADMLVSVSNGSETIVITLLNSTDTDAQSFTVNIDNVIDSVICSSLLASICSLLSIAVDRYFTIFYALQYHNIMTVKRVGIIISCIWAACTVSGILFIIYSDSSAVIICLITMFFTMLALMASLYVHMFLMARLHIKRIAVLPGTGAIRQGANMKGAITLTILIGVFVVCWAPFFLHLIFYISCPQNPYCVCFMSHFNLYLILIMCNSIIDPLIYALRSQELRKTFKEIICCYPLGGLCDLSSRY
Assay readout: Inhibition at 1 μM MC4-R (%)

[
  {
    "Molecule": "N=C(N)NCCC[C@H]1C(=O)N(CCc2ccc3ccccc3c2)CCN1C(=O)[C@H](N)Cc1ccc(Cl)cc1",
    "Target or system": "MC4-R (Homo sapiens, UniProt P32245)",
    "Measured number": 87
  },
  {
    "Molecule": "CCCCCCC(=O)N[C@@H](COCc1ccccc1)C(=O)N[C@H](Cc1ccccc1Cl)C(=O)N1C2CC[C@H](COc3ccc4ccccc4c3)N2C(=O)[C@@H]1CCCCN (stereo partly shown)",
    "Target or system": "MC4-R (Homo sapiens, UniProt P32245)",
    "Measured number": 82
  },
  {
    "Molecule": "NCCCC[C@H]1C(=O)N2C(CC[C@@H]2COc2ccc3ccccc3c2)N1C(=O)[C@@H](Cc1ccccc1Cl)NC(=O)[C@@H]1C[C@H](Oc2ccc3ccccc3c2)CN1 (stereo partly shown)",
    "Target or system": "MC4-R (Homo sapiens, UniProt P32245)",
    "Measured number": 0
  },
  {
    "Molecule": "CC(O)C(N)C(=O)NC(Cc1ccccc1)C(=O)N1CC(OCc2ccccc2)CC1C(=O)NCCCN (stereo not shown)",
    "Target or system": "MC4-R (Homo sapiens, UniProt P32245)",
    "Measured number": 8
  },
  {
    "Molecule": "NCCCC[C@H]1C(=O)N2C(CC[C@@H]2COc2ccc3ccccc3c2)N1C(=O)[C@@H](Cc1ccccc1Cl)NC(=O)[C@@H]1Cc2ccccc2N1 (stereo partly shown)",
    "Target or system": "MC4-R (Homo sapiens, UniProt P32245)",
    "Measured number": 47
  },
  {
    "Molecule": "N[C@H](Cc1ccc(Cl)cc1Cl)C(=O)N1CCN(CCc2ccc3ccccc3c2)C(=O)[C@@H]1CCCNc1nncs1",
    "Target or system": "MC4-R (Homo sapiens, UniProt P32245)",
    "Measured number": 70
  },
  {
    "Molecule": "N=C(N)NCCC[C@H]1C(=O)N(CCc2c[nH]c3ccccc23)CCN1C(=O)[C@@H](Cc1ccc(Cl)cc1)NC(=O)[C@@H](N)COCc1ccccc1",
    "Target or system": "MC4-R (Homo sapiens, UniProt P32245)",
    "Measured number": 96
  },
  {
    "Molecule": "NCCCC[C@H]1C(=O)N(CCc2ccc3ccccc3c2)CCN1C(=O)[C@@H](Cc1ccc(Cl)cc1Cl)NCc1ccc2ccccc2c1",
    "Target or system": "MC4-R (Homo sapiens, UniProt P32245)",
    "Measured number": 84
  },
  {
    "Molecule": "N=C(N)NCCC[C@H]1C(=O)N2C(CC[C@@H]2COc2ccc3ccccc3c2)N1C(=O)[C@@H](Cc1ccc(Cl)cc1Cl)NC(=O)[C@@H]1Cc2ccccc2CN1 (stereo partly shown)",
    "Target or system": "MC4-R (Homo sapiens, UniProt P32245)",
    "Measured number": 100
  },
  {
    "Molecule": "NCCCC[C@H]1C(=O)N2C(CC[C@@H]2COc2ccc3ccccc3c2)N1C(=O)[C@@H](Cc1ccccc1Cl)NC(=O)[C@@H]1Cc2ccccc2CN1 (stereo partly shown)",
    "Target or system": "MC4-R (Homo sapiens, UniProt P32245)",
    "Measured number": 89
  }
]

* * *

biological target: MC5-R (Homo sapiens, UniProt P33032); assay: Competitive inhibition binding assay, 125I-NDP-α-MSH, MC5-R; parameters: expressed in transfected cells; conditions: 1 μM compound; inhibition of 125I-NDP-α-MSH binding; mean of triplicates; results less than 0% reported as 0%
Sequence (P33032 whole entry): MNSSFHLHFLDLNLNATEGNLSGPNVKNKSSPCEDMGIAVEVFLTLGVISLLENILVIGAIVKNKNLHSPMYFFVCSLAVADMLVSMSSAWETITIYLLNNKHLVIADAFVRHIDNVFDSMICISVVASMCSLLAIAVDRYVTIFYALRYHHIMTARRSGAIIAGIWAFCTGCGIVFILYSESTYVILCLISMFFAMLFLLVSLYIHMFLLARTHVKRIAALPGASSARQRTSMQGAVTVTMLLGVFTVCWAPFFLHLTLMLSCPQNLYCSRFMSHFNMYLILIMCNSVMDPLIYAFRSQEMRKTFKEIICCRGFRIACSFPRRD

[
  {
    "Molecule": "CC(C)NC(=N)NCCCC1C(=O)N(CCc2ccc3ccccc3c2)CCN1C(=O)C(N)Cc1ccc(Cl)cc1Cl (stereo not shown)",
    "Unit name": "%",
    "Inhibition at 1 μM MC5-R": 28
  },
  {
    "Molecule": "N=C(N)NCCC[C@H]1C(=O)N(CCc2c[nH]c3ccccc23)CCN1C(=O)[C@H](N)Cc1ccc(Cl)cc1",
    "Unit name": "%",
    "Inhibition at 1 μM MC5-R": 43
  },
  {
    "Molecule": "NCCCC[C@H]1C(=O)N2C(CC[C@@H]2COc2ccc3ccccc3c2)N1C(=O)[C@@H](Cc1ccccc1Cl)NC(=O)[C@@H](N)C1Cc2ccccc2C1 (stereo partly shown)",
    "Unit name": "%",
    "Inhibition at 1 μM MC5-R": 46
  },
  {
    "Molecule": "NCCCNC(=O)[C@@H]1C[C@@H](OCc2ccccc2)CN1C(=O)[C@@H](Cc1ccccc1)NC(=O)[C@H](N)C(c1ccccc1)c1ccccc1",
    "Unit name": "%",
    "Inhibition at 1 μM MC5-R": 0
  },
  {
    "Molecule": "NCCCNC(=O)[C@@H]1C[C@@H](OCc2ccccc2)CN1C(=O)[C@@H](Cc1ccccc1)NC(=O)[C@H](Cc1cnc[nH]1)NC(=O)Cc1ccc2ccccc2c1",
    "Unit name": "%",
    "Inhibition at 1 μM MC5-R": 19
  },
  {
    "Molecule": "NCCCC[C@H]1C(=O)N2C(CC[C@@H]2COc2ccc3ccccc3c2)N1C(=O)[C@@H](Cc1ccccc1Cl)NC(=O)[C@H]1NCCc2ccccc21 (stereo partly shown)",
    "Unit name": "%",
    "Inhibition at 1 μM MC5-R": 46
  },
  {
    "Molecule": "NCCCNC(=O)[C@@H]1C[C@@H](OCc2ccccc2)CN1C(=O)[C@@H](Cc1ccccc1)NC(=O)[C@@H](N)Cc1cccc2ccccc12",
    "Unit name": "%",
    "Inhibition at 1 μM MC5-R": 0
  },
  {
    "Molecule": "NCCCNC(=O)[C@@H]1C[C@@H](OCc2ccccc2)CN1C(=O)[C@@H](Cc1ccccc1)NC(=O)c1ccc(CN)cc1",
    "Unit name": "%",
    "Inhibition at 1 μM MC5-R": 0
  },
  {
    "Molecule": "CCCCCCC(=O)N[C@@H](COCc1ccccc1)C(=O)N[C@H](Cc1ccc(Cl)cc1)C(=O)N1CCN(CCc2c[nH]c3ccccc23)C(=O)[C@@H]1CCCCN",
    "Unit name": "%",
    "Inhibition at 1 μM MC5-R": 99
  },
  {
    "Molecule": "N[C@H](Cc1ccc(Cl)cc1Cl)C(=O)N1CCN(CCc2ccc3ccccc3c2)C(=O)[C@@H]1CCCCNC=O",
    "Unit name": "%",
    "Inhibition at 1 μM MC5-R": 6
  },
  {
    "Molecule": "N=C(N)NCCC[C@H]1C(=O)N2C(CC[C@@H]2COc2ccc3ccccc3c2)N1C(=O)[C@@H](Cc1ccc(Cl)cc1Cl)NC(=O)[C@@H](N)COCc1ccccc1 (stereo partly shown)",
    "Unit name": "%",
    "Inhibition at 1 μM MC5-R": 94
  },
  {
    "Molecule": "CCCC(CCC)C(=O)N[C@@H](Cc1cnc[nH]1)C(=O)N[C@H](Cc1ccccc1)C(=O)N1C[C@H](OCc2ccccc2)C[C@H]1C(=O)NCCCN",
    "Unit name": "%",
    "Inhibition at 1 μM MC5-R": 7
  },
  {
    "Molecule": "N=C(N)NCCC[C@H]1C(=O)N(CCc2c[nH]c3ccccc23)CCN1C(=O)[C@H](N)Cc1ccc(Cl)cc1Cl",
    "Unit name": "%",
    "Inhibition at 1 μM MC5-R": 35
  }
]
